- experimentalProtocol: protein stability index of a GFP-peptide fusion (yeast GPS) (PSI 1-4); higher = more stable; sorted into four equal gates, so the index is relative within each strain
- experimentalContext: san1∆

residueCodes	protein stability index
STLQHFQETLDSTVVYP [MED8]	2.96
VKPISIEAPQFYRYWSA [SWI3]	1.85
EIEELKSSIQNLNELES [SMC3]	2.07
ATDVEARAVQDNGESAF [RPL13A]	1.56
QEKMDPNNSRDDYKDLT [IRR1]	3.23
NKKGRGHVKPVRCVNCS [RPS26A]	2.98
QSNYGIYSSDAQGDPNL [NUT1]	2.51
DEVGRRSMLTVVRNMLA [YCG1]	3.01
GSDEAYVKDARKDTVSR [RPC40]	3.13
TLLIAIRGSNRDLKPSN [YML103C/NUP188]	2.52
NPHDGVNSIALFVGTDR [RPN14]	2.33
TPSTNEPYARVSGDLNP [FAS1]	2.46
TPKLQTQLSYLISSSLS [YCS4]	2
VTNDLDTSAEKDQIQAG [SIR4]	3.28
TGEKPIITGSTSTSSSN [MED8]	2.57
ANAVQNNNGNSAASKKK [SRP21]	2.96
EQGIELEHIDSKSEFAH [FAS2]	3.08
QIKEIKEVIELPVKHPE [RPT6]	3.27
VGGCKDQIEKLREVVEL [RPT1]	3.4
ATPQDAQFYLGKRIAYV [RPL33A]	2.57
ANSSITPAFGSNNTGNT [YJL041W/NSP1]	2.72
LADSLDRCVDPEDPYFN [DIS3]	3.35
AFDVDRAKSCGVDAMSV [RPL1A]	2.76
LNDPSLKIQFILSTTLD [SIN4]	1.32
TFENINSLFYLKWSACT [IRR1]	1.27
VGFGESNFTSIIGPNGS [SMC1]	3.15
RANLRKYREGQVLFQGL [POP1]	2.02
EEKEKEQSKEVGDVVGG [BRN1]	3.29
RDYLVDTLKLRENLHIL [RRP6]	3.4
ENVEKKEAALKTMIKTI [SMC2]	1.73
KASTYGELVLDIEVPDV [SNF12]	2.13

---

protein stability index values for the sequences below.
- experimentalProtocol: protein stability index of a GFP-peptide fusion (yeast GPS) (PSI 1-4); higher = more stable; sorted into four equal gates, so the index is relative within each strain
- experimentalContext: ubr1∆

residueCodes	protein stability index
HLGERAASVIGMLVALG [RPC82]	2.04
LFIGLFTRPLFVLLEIE [YCS4]	1.61
IPSLQNNIEENLRLLNS [ECM29]	3.25
VHPIPDVAFADGGKTLR [YMR129W/POM152]	2.63
SDRREHDEKLSDELHNQ [LIN1]	2.89
GWYHSGPKLRASDLKIN [RPN8]	2.06
QKLHKVKKASGEIVSIN [RPL20A]	2.8
ESLSEEHASLLVRDSKP [MED8]	2.59
QIISNAHNKPSLFSKIK [YAR002W/NUP60]	2.94
TEFSKNDLEVGVATKDK [SCL1]	2.71
KSRIVKVVGPRGTLTKN [RPL9A]	2.71
KLNTFNLQTFTHEQWSN [SRP72]	2.78
SLSRDFVMKTRRRKGIS [SNU114]	2.77
SNEFVPNTSDNNNNSNN [SWI1]	2.88

---

- experimentalProtocol: protein stability index of a GFP-peptide fusion (yeast GPS) (PSI 1-4); higher = more stable; sorted into four equal gates, so the index is relative within each strain
- experimentalContext: ubr1∆
Values of protein stability index greater than or equal to 3 map to Yes; values below map to No.

residueCodes	discreteLabel
DLAMANSLRRVMIAEIP [RPB3]	No
SITTGNDNENIVNNDLP [MED2]	No
ETQPGCNEEQTLEAKIG [RPO31]	Yes
LPEILNVLCVNIKSNDF [ECM29]	No
MGRVIRNQRKGAGSIFT [RPL2A]	No

---

- experimentalProtocol: protein stability index of a GFP-peptide fusion (yeast GPS) (PSI 1-4); higher = more stable; sorted into four equal gates, so the index is relative within each strain
- experimentalContext: san1∆
valueKind: protein stability index

residueCodes	valueKind	reportedResult
ARKYLQTRWGLPSGRQD [FAS2]	protein stability index	2.12
VINPQQLLKGLSLSFSK [DSN1]	protein stability index	2.54
YSRITLIIDDPSKGQSL [RPP1]	protein stability index	2.42
QELAKSIRSRRPYQVNV [PRE1]	protein stability index	3.2
LLREYDILSQILYGLVD [YJL039C/NUP192]	protein stability index	2.07
EIEQVCKQVHDKLTSIQ [MED7]	protein stability index	2.92
LQSLNESKDLLRASFNK [SRB4]	protein stability index	2.98
SQEREFSLLVKAEIPPE [SIN4]	protein stability index	2.96
LDDFGEEELFEVTKEED [RRP43]	protein stability index	2.36
DPNEVEIKKLLATNSLV [DIS3]	protein stability index	2.35
EAHNKALNQFKRKLLEH [RPT4]	protein stability index	3.46
MFAYAKEHEPCIIFMDE [RPT4]	protein stability index	2.24
SGKSNILDAICFVLGIA [SMC2]	protein stability index	2.25
EFENKFQNSYKPALKVS [YMR129W/POM152]	protein stability index	3.04
ETDGKHGKRRSQVVETH [YMR129W/POM152]	protein stability index	3.21
SMATPTHSDSHEDMKRR [ROX3]	protein stability index	2.53
RTYSKTYSTPKRPYESS [RPS9A]	protein stability index	2.46
PERFMVFQLPTRLPAFE [RPC53]	protein stability index	2.54
TIQYDPPETKLPYPTYW [SNF5]	protein stability index	2.98
TVIPEDEEIIQLHFSLL [RPO21]	protein stability index	2.98
MISIIKLVTNVVDPKTS [YML103C/NUP188]	protein stability index	2.04
REIHNEAESQLRAAQQQ [FAS2]	protein stability index	2.86
IIEQLSIAAERYDYSDE [YCG1]	protein stability index	2.22
DIIQGNPLMYSGGNNTA [PCI8]	protein stability index	3.32
KGVTEKDAVDYSKIPNI [RRP6]	protein stability index	3.25
SSTKPPGSVNSAAKYKD [NUT1]	protein stability index	2.53
PSTAIHTSPHQPSDVKP [SIR4]	protein stability index	2.76
QNPKLFQTIFSKQDLIH [SIN4]	protein stability index	2.02
SGPFKVNGVPLRRVNAR [RPL6A]	protein stability index	2.96
ARNLYIIAVKGSGSRLN [RPL23A]	protein stability index	1.22

---

- experimentalProtocol: protein stability index of a GFP-peptide fusion (yeast GPS) (PSI 1-4); higher = more stable; sorted into four equal gates, so the index is relative within each strain
- experimentalContext: ubr1∆

residueCodes	protein stability index
SADREIQRTLMELLTQM [RPT4]	3.02
QLDSDANKLSKSHSTVS [ISW2]	3.06
ARLPPRATNCRKRKCGH [RPL40A]	3.14
FLQELLKKVQQQQQAAA [SWI1]	2.85
GSELSSKIRKIHIQETQ [SIR3]	2.68
KNSSTSNTEPIPRSNRH [MED1]	3.18
EKRHKNVPVHVSPAFRV [RPS11A]	2.75
FEYEGVQDIIGNGKLSE [RPN1]	2.74

---

- experimentalProtocol: protein stability index of a GFP-peptide fusion (yeast GPS) (PSI 1-4); higher = more stable; sorted into four equal gates, so the index is relative within each strain
- experimentalContext: ubr1∆
Outcome: 1 for protein stability index of at least 3; 0 for anything lower.

residueCodes	discreteLabel
TAAYARTIGIAVDHRRQ [RPL13A]	0
DQRDELLEQKKSIINSQ [ITC1]	1
DTTVNDCLDKLLNDECT [SNF2]	1
KTGTKPAAVFAETLKHD [RPL4B]	0
KLSDNISICMILCGIQE [YDL116W/NUP84]	0
RKPMGKRINFEKIKDIH [POP1]	0

---

- experimentalProtocol: protein stability index of a GFP-peptide fusion (yeast GPS) (PSI 1-4); higher = more stable; sorted into four equal gates, so the index is relative within each strain
- experimentalContext: doa10∆
Each entry below lists one item and its recorded protein stability index value.
valueKind: protein stability index

residueCodes	valueKind	reportedResult
ECPAIPIFNYIFTEKIY [YJL039C/NUP192]	protein stability index	1.34
VKQIAPAELEGLLDLER [FAS2]	protein stability index	3.11
VNVLLQSYFSQLKFEGF [BRR2]	protein stability index	1.22
NCNIKDFKPPYIYSHVN [SWP82]	protein stability index	2.73
VMNTKLLQEGGSLSGNS [ESC2]	protein stability index	3.27
DTGTLDTKSVVGLVMFS [RPN2]	protein stability index	2.67
KFDSRIRGILMASGSTT [PRP8]	protein stability index	2.44
DVHLLESKVYHKLRNLA [RPN6]	protein stability index	1.95
QGEEEELIALNLSEARL [RPB4]	protein stability index	3.22
DIDVTIVSKEYEKNFEA [ESC2]	protein stability index	3.27
HPQDFGNPGRIRVLFKE [SEC65]	protein stability index	2.91
SEISIIDATLKEELLRD [RRP45]	protein stability index	2.44
QQQQQQQQGQIPQSQQV [SNF5]	protein stability index	2.23
NINSTDKSIDTSSLQLY [YML103C/NUP188]	protein stability index	2.98
